Each entry below lists one item and its recorded cell viability value.
Tested on: SEM cells
Assay Remarks: cell viability relative to DMSO control; higher = less cytotoxic
Run Conditions: HPLM + 10% dialyzed FBS; 48 h; 0.19 µM
Note: unit % is implicit; provide only the numeric part.

Cc1ccnc2c1NC(=O)c1cccnc1N2C1CC1; 97.2
CC[C@@H]([C@H](C)O)n1ncn(-c2ccc(N3CCN(c4ccc(OCC5CO[C@@](Cn6cncn6)(c6ccc(F)cc6F)C5)cc4)CC3)cc2)c1=O (some centres undefined); 100
CCOC(=O)\C1=C\[C@]2(CC)CCCN3CCC4=C([C@H]23)[N]1C5=C4C=CC=C5; 103
COc1cc2c(cc1OC)CN(CCc1ccc(NC(=O)c3cc(OC)c(OC)cc3NC(=O)c3cnc4ccccc4c3)cc1)CC2; 110
c1nc2c(NC3CCCCC3)nc(Nc3ccc(N4CCOCC4)cc3)nc2[nH]1; 116

Lookup: Give the reported cell viability for COC1=C(OCCCN2CCOCC2)C=C3N=CC=C(OC4=CC=C(C=C4F)\C5=C\N=C(\NC6=CC=C(F)C=C6)N(C)C5=O)C3=C1 (system: SEM cells).
Found: 57.7

Lookup: Consider next the molecule CCCCOc1c(C(=O)c2c(F)cc(C)cc2F)cnc2[nH]ncc12 in the same way.
Found: 108

Lookup: Consider next the molecule CC(C(=O)O)c1ccc2c(c1)CC(=O)c1ccccc1S2 (centres undefined) in the same way.
Found: 112
